Reference for the values: paper PMC7918049

test system: T-47D ductal carcinoma cells; assay: MTT antiproliferative assay, T-47D; type: cell-based, human; details: Homo sapiens, T47D, 72 h, mean of four parallel experiments, read-out: IC50 (µM) ± SD T-47D
Please respond with reported IC50 for every item in the list.
Answers are plain numbers, in µM.

Check out these entries, answers already filled in.
{"molecule": "C=Cc1c(C)c(O)cc2c1-c1ccc(O)c(C)c1CC2", "observed_result": 25}
{"molecule": "Cc1c(O)ccc2c1CCc1cc(O)cc(C=O)c1-2", "observed_result": 26.6}
{"molecule": "C=Cc1cc(O)cc2c1-c1ccc(Oc3cc4c(c(C)c3O)CCc3cc(O)cc(C=C)c3-4)c(C)c1CC2", "observed_result": 9.1}
{"molecule": "C=Cc1cc(O)cc2c1-c1cc(-c3cc4c(c(C)c3O)CCc3cc(O)cc(C=C)c3-4)c(O)c(C)c1CC2", "observed_result": 6.2}
{"molecule": "Cc1c(O)cc2ccc3c(C)c(O)cc4c3c2c1C(O)C4 (stereo not drawn)", "observed_result": 17}

// for each molecule in input: emit IC50
1. C=Cc1cc(O)c(C)c2c1-c1ccc(O)c(C)c1CC2
2. C=Cc1cc(O)c(CO)c2c1-c1ccc(O)c(C)c1CC2
3. C=Cc1cc(C)cc2c1-c1ccc(O)c(C)c1CC2

[reply]
57
12.8
41.4
